# Assayed system: hPAD4 (Homo sapiens, UniProt Q9UM07)
# Sequence (Q9UM07 whole entry): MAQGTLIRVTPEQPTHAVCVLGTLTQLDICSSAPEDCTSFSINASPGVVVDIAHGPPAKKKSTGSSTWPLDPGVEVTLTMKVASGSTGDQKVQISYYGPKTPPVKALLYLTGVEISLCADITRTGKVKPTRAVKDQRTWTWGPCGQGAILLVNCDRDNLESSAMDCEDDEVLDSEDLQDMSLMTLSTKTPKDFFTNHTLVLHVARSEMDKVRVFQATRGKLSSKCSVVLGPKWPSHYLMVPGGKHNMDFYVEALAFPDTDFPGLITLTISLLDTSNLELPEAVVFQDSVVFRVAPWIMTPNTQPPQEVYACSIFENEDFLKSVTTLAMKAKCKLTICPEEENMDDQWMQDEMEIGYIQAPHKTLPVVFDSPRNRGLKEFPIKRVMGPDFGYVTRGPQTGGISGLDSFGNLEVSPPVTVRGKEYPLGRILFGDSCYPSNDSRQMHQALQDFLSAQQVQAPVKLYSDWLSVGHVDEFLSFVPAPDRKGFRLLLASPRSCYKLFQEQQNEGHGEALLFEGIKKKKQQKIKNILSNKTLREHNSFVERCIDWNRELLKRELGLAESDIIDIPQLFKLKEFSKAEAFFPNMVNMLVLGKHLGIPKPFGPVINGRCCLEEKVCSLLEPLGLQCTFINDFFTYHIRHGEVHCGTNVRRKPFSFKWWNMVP
# Assay remarks: hPAD4 RFMS (RapidFire mass spectrometry) PAD4 inhibition assay;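 note: grade E means pIC50 at most 4 and F means pIC50 4.0 to 5.0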
# Format: biochemical
# Experimental conditions: hPAD4 enzyme, RFMS readout; pIC50=−log(IC50); read-out: hPAD4 RFMS pIC50 (converted)
Measured parameter: IC50

Example entries and their recorded answers appear below.
COc1ccc2cc(-c3nc4cc(C(=O)N5C[C@@H](N)C[C@H](F)C5)cc(OC)c4n3C)n(CC3CC3)c2n1 [Compound I-356]: < 1 µM
COc1ccc2cc(-c3nc4cc(C(=O)N5C[C@H]6CC[C@@H]5[C@@H]6N)cc(OC)c4n3C)n(CC3CC3)c2n1 [Compound I-188]: < 1 µM
Cn1c(-c2cc3ccccc3n2CC2CC2)nc2cc(C(=O)N3CC[C@@H]4CCN[C@@H]4C3)ccc21 [Compound I-2]: 10 to 100 µM

Now turn to the next compound.
What the record says about CCn1c(-c2cc3cccnc3n2CC2CC2)nc2cc(C(=O)N3CC[C@@H]4CCN[C@@H]4C3)cc(OC)c21 [Compound I-23] : IC50 is < 1 µM
